Target: T1, MutY (EcMutY) wild type (Escherichia coli, UniProt P17802 1-350)
T1 sequence: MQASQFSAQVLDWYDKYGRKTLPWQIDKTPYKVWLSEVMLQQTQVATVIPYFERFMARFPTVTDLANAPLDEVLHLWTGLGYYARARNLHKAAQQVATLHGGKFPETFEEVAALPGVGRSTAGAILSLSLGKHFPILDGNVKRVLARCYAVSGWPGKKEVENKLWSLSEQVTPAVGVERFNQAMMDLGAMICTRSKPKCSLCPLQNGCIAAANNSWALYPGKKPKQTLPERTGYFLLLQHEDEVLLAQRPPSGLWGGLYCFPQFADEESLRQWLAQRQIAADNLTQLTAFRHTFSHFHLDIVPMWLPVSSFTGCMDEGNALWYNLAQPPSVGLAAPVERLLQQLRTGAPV
Assay: EMSA; 20 mM Tris-HCl pH 7.6, 80 mM NaCl, 1 mM DTT, 1 mM EDTA, 2.9% glycerol, 20 ng poly dI/dC per 20 ul, 0.09 nM labeled DNA, 30 min at 30 C; 4% PAGE in TBE
Conditions: protein: recombinant; label: 5'-32P on X strand; blunt; T/G mismatch at strand 1 position 22
measured-quantity: pKd
In textbook form, pKd equals minus log to base ten of the concentration in mol/L.

### Prompt Reported pKd for T/G 44-mer (dsDNA) DNA 1: AATTGGGCTCCTCGAGGAATTTGCCTTCTGCAGGCATGCCCCGG DNA 2: CCGGGGCATGCCTGCAGAAGGCGAATTCCTCGAGGAGCCCAATT : what is it?
### Response 7.85
